systemTested: T1, FLAG-tagged human APRIL (human, UniProt O75888 105-250, limits assumed)
T1 construct: also called FLAG-tagged APRIL; FLAG-APRIL; not shown: FLAG tag
T1 sequence (looked up): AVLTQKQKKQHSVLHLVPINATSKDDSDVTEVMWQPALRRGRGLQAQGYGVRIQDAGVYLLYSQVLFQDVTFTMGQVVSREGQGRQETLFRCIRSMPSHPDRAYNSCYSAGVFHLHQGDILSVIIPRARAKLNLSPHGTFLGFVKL
procedureText: ELISA: FLAG-tagged human APRIL captured on anti-FLAG plate, purified antibody titrated
Kindly supply the reported EC50 values for the records listed here.

Task: Supply reported EC50 belonging to this binder: VH14_1.VL15 (antibody, human IgG4, V domains shown, VH14 with R72S; rest is human IgG4 (S241P, Kabat) and human kappa; also called 14_1.15; antibody 14_1.15) VH: QVQLVQSGAEVKKPGASVKVSCKASGYTFTSYVMHWVRQAPGQGLEWMGYINPYNDAPKYNEKFKGRVTMTSDTSASTAYMELSSLRSDDTAVYYCARGLGYALYYAMDYWGQGTTVTVSS VL: DIVMTQSPSTLSASVGDRVTITCKASQNVGNNVAWYQQKPGKAPKLLISSASNRDSGVPSRFSGSGSGTEFTLTISSLQPDDFATYFCQQYNIYPFTFGQGTKLEIK
Output: 1.29 nM

Task: Supply reported EC50 belonging to this binder: VH14_1D.VL15 (antibody, human IgG4, V domains shown, VH14_1 with T74K; Rest is human IgG4 (S241P, Kabat) and human kappa; also called 14_1D.15) VH: QVQLVQSGAEVKKPGASVKVSCKASGYTFTSYVMHWVRQAPGQGLEWMGYINPYNDAPKYNEKFKGRVTMTSDKSASTAYMELSSLRSDDTAVYYCARGLGYALYYAMDYWGQGTTVTVSS VL: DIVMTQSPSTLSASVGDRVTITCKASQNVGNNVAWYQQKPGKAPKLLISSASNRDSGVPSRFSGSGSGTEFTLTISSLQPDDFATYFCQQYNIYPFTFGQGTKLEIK
Output: 1.95 nM

Task: Supply reported EC50 belonging to this binder: VH14_1C.VL15 (antibody, human IgG4, V domains shown, VH14_1 with M70I; Rest is human IgG4 (S241P, Kabat) and human kappa; also called 14_1C.15) VH: QVQLVQSGAEVKKPGASVKVSCKASGYTFTSYVMHWVRQAPGQGLEWMGYINPYNDAPKYNEKFKGRVTITSDTSASTAYMELSSLRSDDTAVYYCARGLGYALYYAMDYWGQGTTVTVSS VL: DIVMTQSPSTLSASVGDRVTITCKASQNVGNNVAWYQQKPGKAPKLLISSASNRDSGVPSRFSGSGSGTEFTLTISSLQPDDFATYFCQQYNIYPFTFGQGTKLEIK
Output: 7.04 nM
